Tested on: human MDR1
Assay: in vitro
Details: dog, MDCK-MDR1, pH 7.4
readout.kind: Papp B→A at 2 h, 5 µM (nm/s)

>>> reported_measurement("CSc1ccc(OCc2ncc([N+](=O)[O-])n2C)cc1")
551

* * *

Experiment: Rat 28-day toxicokinetics
Type: in vivo
Details: Sprague-Dawley (Crl:CD (SD)IGS BR), plasma, po, 200 mg/kg/day, 200 mg/kg/day po, day 1
Method: In the rat repeated-dose toxicokinetic study, fexinidazole was administered orally by gavage once a day for 28 consecutive days to ten or fifteen Crl:CD (SD)IGS BR rats/sex/group at doses of 50, 200, or 800 mg/kg/day. […] Systemic exposure to fexinidazole and its sulfoxide and sulfone metabolites was evaluated in three additional animals/sex/group. […] ULOQ Upper limit of quantification […] 24 hours post dosing was calculated and denoted AUC0-24. […]
readout.kind: Tmax (h)

>>> reported_measurement("Cn1c([N+](=O)[O-])cnc1COc1ccc(S(C)(=O)=O)cc1")
8
>>> reported_measurement("CSc1ccc(OCc2ncc([N+](=O)[O-])n2C)cc1")
1.92
>>> reported_measurement("Cn1c([N+](=O)[O-])cnc1COc1ccc([S+](C)[O-])cc1 (stereo not drawn) [Fexinidazole sulfoxide]")
2.33

* * *

Overview of recorded Cmax for various compounds
Experiment: Mouse single-dose plasma pharmacokinetics
Assay type: in vivo
Conditions: female, NMRI, mouse, plasma, iv, 1 mg/kg, plasma, fexinidazole 1 mg/kg iv; read-out: Cmax
readout.kind: Cmax (ng/mL)

>>> reported_measurement("CSc1ccc(OCc2ncc([N+](=O)[O-])n2C)cc1")
164
>>> reported_measurement("Cn1c([N+](=O)[O-])cnc1COc1ccc([S+](C)[O-])cc1 (stereo not drawn) [Fexinidazole sulfoxide]")
918
>>> reported_measurement("Cn1c([N+](=O)[O-])cnc1COc1ccc(S(C)(=O)=O)cc1")
511

* * *

Experiment: Rat 28-day toxicokinetics
Format: in vivo
Conditions: male, Sprague-Dawley (Crl:CD (SD)IGS BR), plasma, po, 200 mg/kg/day, Day 28, male, read-out: AUC0-t(last)
Procedure: In the rat repeated-dose toxicokinetic study, fexinidazole was administered orally by gavage once a day for 28 consecutive days to ten or fifteen Crl:CD (SD)IGS BR rats/sex/group at doses of 50, 200, or 800 mg/kg/day. […] Systemic exposure to fexinidazole and its sulfoxide and sulfone metabolites was evaluated in three additional animals/sex/group. […] ULOQ Upper limit of quantification […] 24 hours post dosing was calculated and denoted AUC0-24. […]
readout.kind: AUC(0-t) (µg·h/mL)

>>> reported_measurement("Cn1c([N+](=O)[O-])cnc1COc1ccc(S(C)(=O)=O)cc1")
387

* * *

Assay: Rat 28-day toxicokinetics
Type: in vivo
Details: male, Sprague Dawley (Crl:CD (SD)IGS BR), plasma, po, 200 mg/kg, Day 1, male
Procedure: In the rat repeated-dose toxicokinetic study, fexinidazole was administered orally by gavage once a day for 28 consecutive days to ten or fifteen Crl:CD (SD)IGS BR rats/sex/group at doses of 50, 200, or 800 mg/kg/day. […] Systemic exposure to fexinidazole and its sulfoxide and sulfone metabolites was evaluated in three additional animals/sex/group. […] ULOQ Upper limit of quantification […] 24 hours post dosing was calculated and denoted AUC0-24. […]
Overview of recorded Cmax for various compounds
readout.kind: Cmax (ng/mL)

>>> reported_measurement("Cn1c([N+](=O)[O-])cnc1COc1ccc(S(C)(=O)=O)cc1")
8550
>>> reported_measurement("Cn1c([N+](=O)[O-])cnc1COc1ccc([S+](C)[O-])cc1 (stereo not drawn) [Fexinidazole sulfoxide]")
9990
>>> reported_measurement("CSc1ccc(OCc2ncc([N+](=O)[O-])n2C)cc1")
165
